Experiment: Lipophilicity, logD at pH 7.4 in n-octanol/PBS
Format: physicochemical
Conditions: 68Ga-labeled ligand
Starred links: 1 amine or outer side, 2 acyl side, 3 side chain; linkers in the order of their positions; H or OH if unused. Non-standard residues stand in square brackets, D forms with d. Residues, ends and D or L forms follow the SMILES beside them. *: point of attachment. FITC = O=C1OC2(c3ccc(O)cc3Oc3cc(O)ccc32)c2ccc(NC(=S)*)cc21; DOTA = O=C(O)CN1CCN(CC(=O)O)CCN(CC(=O)*)CCN(CC(=O)O)CC1; X2 = O=C(O)CCC(NC(=O)NC(CCCCN*)C(=O)O)C(=O)O; 2Nal = N[CH](Cc1ccc2ccccc2c1)C(=O)O; X1 = O=C(C1CCC(CN[*:1])CC1)[*:2]
reported.endpoint: Lipophilicity logDpH 7.4 n-octanol/PBS

compound | Lipophilicity logDpH 7.4 n-octanol/PBS
O=C(O)CCC(NC(=O)NC(CCCCNC(=O)C(Cc1ccc2ccccc2c1)NC(=O)C1CCC(CNC(=O)C(CCCCNC(=S)Nc2ccc3c(c2)C(=O)OC32c3ccc(O)cc3Oc3cc(O)ccc32)NC(=O)C(CCC(=O)O)NC(=O)C(CCC(=O)O)NC(=O)CN2CCN(CC(=O)O)CCN(CC(=O)O)CCN(CC(=O)O)CC2)CC1)C(=O)O)C(=O)O (stereo not drawn) [PSMA-923] ({DOTA}-EEK(FITC)[X1][2Nal]-X2; configuration not given here) | -2.16 ± 0.04
O=C(O)CCC(NC(=O)NC(CCCCNC(=O)C(Cc1ccc2ccccc2c1)NC(=O)C1CCC(CNC(=O)C(CCCCNC(=S)Nc2ccc3c(c2)C(=O)OC32c3ccc(O)cc3Oc3cc(O)ccc32)NC(=O)C(CCC(=O)O)NC(=O)CN2CCN(CC(=O)O)CCN(CC(=O)O)CCN(CC(=O)O)CC2)CC1)C(=O)O)C(=O)O (stereo not drawn) | -2.07 ± 0.06

# context switch: different compound, same Lipophilicity logDpH 7.4 n-octanol/PBS
Please fill in: Lipophilicity logDpH 7.4 n-octanol/PBS reported for CC1(C)C(=CC=C2CCCC(C=CC3=[N+](CCCCCC(=O)NCCCCC(NC(=O)CN4CCN(CC(=O)O)CCN(CC(=O)O)CCN(CC(=O)O)CC4)C(=O)NCC4CCC(C(=O)NC(Cc5ccc6ccccc6c5)C(=O)NCCCCC(NC(=O)NC(CCC(=O)O)C(=O)O)C(=O)O)CC4)c4ccc(S(=O)(=O)O)cc4C3(C)C)=C2Oc2ccc(S(=O)(=O)O)cc2)N(CCCCS(=O)(=O)O)c2ccc(S(=O)(=O)O)cc21 (stereo not drawn) = -2.96 ± 0.06

###

Molecular target: PSMA (Homo sapiens)
Sequence (Q04609 whole entry): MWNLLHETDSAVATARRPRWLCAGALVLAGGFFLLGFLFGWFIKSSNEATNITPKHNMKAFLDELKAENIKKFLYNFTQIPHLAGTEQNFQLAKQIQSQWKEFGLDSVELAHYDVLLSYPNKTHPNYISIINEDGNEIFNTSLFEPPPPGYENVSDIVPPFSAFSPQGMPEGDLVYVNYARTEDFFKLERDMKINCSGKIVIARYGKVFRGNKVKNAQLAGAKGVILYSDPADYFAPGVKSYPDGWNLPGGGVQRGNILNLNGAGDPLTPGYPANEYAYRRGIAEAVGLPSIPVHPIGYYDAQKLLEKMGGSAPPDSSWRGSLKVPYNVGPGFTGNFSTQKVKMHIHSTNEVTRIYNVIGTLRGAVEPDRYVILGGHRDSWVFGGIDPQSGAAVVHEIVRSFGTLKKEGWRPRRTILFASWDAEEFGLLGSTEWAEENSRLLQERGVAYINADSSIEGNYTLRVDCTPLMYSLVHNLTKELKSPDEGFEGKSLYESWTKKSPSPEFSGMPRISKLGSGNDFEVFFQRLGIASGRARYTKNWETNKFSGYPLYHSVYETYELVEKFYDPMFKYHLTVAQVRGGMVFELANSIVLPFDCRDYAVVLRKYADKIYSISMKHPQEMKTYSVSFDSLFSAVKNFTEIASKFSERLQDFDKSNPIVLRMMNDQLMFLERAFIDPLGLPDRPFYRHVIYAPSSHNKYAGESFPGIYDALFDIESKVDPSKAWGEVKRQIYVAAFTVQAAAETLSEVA
Starred links: 1 amine or outer side, 2 acyl side, 3 side chain; linkers in the order of their positions; H or OH if unused. Non-standard residues stand in square brackets, D forms with d. Residues, ends and D or L forms follow the SMILES beside them. *: point of attachment. FITC = O=C1OC2(c3ccc(O)cc3Oc3cc(O)ccc32)c2ccc(NC(=S)*)cc21; DOTA = O=C(O)CN1CCN(CC(=O)O)CCN(CC(=O)*)CCN(CC(=O)O)CC1; X2 = O=C(O)CCC(NC(=O)NC(CCCCN*)C(=O)O)C(=O)O; 2Nal = N[CH](Cc1ccc2ccccc2c1)C(=O)O; X1 = O=C(C1CCC(CN[*:1])CC1)[*:2]
Here, each record is paired with measured IC50 data.
Answer with a number only, understood to be in nM.

compound | IC50 [nM]
O=C(O)CCC(NC(=O)NC(CCCCNC(=O)C(Cc1ccc2ccccc2c1)NC(=O)C1CCC(CNC(=O)C(CCCCNC(=O)CN2CCN(CC(=O)O)CCN(CC(=O)O)CCN(CC(=O)O)CC2)NC(=O)C(CCC(=O)O)NC(=O)C(CCC(=O)O)NC(=S)Nc2ccc3c(c2)C(=O)OC32c3ccc(O)cc3Oc3cc(O)ccc32)CC1)C(=O)O)C(=O)O (stereo not shown) [PSMA-926] ({FITC}-EEK(DOTA)[X1][2Nal]-X2; configuration not given here) | 8.59
O=C(O)CCC(NC(=O)NC(CCCCNC(=O)C(Cc1ccc2ccccc2c1)NC(=O)C1CCC(CNC(=O)C(CCCCNC(=S)Nc2ccc3c(c2)C(=O)OC32c3ccc(O)cc3Oc3cc(O)ccc32)NC(=O)C(CCC(=O)O)NC(=O)C(CCC(=O)O)NC(=O)CN2CCN(CC(=O)O)CCN(CC(=O)O)CCN(CC(=O)O)CC2)CC1)C(=O)O)C(=O)O (stereo not shown) [PSMA-923] ({DOTA}-EEK(FITC)[X1][2Nal]-X2; configuration not given here) | 7.14
O=C(O)CCC(NC(=O)NC(CCCCNC(=O)C(Cc1ccc2ccccc2c1)NC(=O)C1CCC(CNC(=O)C(CCCCNC(=O)CN2CCN(CC(=O)O)CCN(CC(=O)O)CCN(CC(=O)O)CC2)NC(=O)C(CCC(=O)O)NC(=S)Nc2ccc3c(c2)C(=O)OC32c3ccc(O)cc3Oc3cc(O)ccc32)CC1)C(=O)O)C(=O)O (stereo not shown) [PSMA-925] | 8.12

Now look at this entry.
IC50 for PSMA (Homo sapiens) with input O=C(O)CCC(NC(=O)NC(CCCCNC(=O)C(Cc1ccc2ccccc2c1)NC(=O)C1CCC(CNC(=O)C(CCCCNC(=S)Nc2ccc3c(c2)C(=O)OC32c3ccc(O)cc3Oc3cc(O)ccc32)NC(=O)C(CCC(=O)O)NC(=O)CN2CCN(CC(=O)O)CCN(CC(=O)O)CCN(CC(=O)O)CC2)CC1)C(=O)O)C(=O)O (stereo not shown) [PSMA-922] equals 6.93
